meta.source: patent US20260258050A1

- system-under-test: Human IL-17A (Homo sapiens)
- Sequence (Q16552 20-155 limits assumed): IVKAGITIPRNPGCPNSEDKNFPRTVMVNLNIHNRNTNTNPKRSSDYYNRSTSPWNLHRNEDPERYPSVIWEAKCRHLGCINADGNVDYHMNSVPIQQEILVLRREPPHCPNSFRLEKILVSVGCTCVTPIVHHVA
- protocol-notes: IL-17A enzyme-linked immunosorbent assay (competitive ELISA, IL-17A/IL-17Ra receptor-ligand binding)
- Set-up: purchased Sino Biological Inc. 12047-H07B
- reported-conditions: human IL-17A coated plate, human IL-17Ra, read-out: IC50, inhibitory activity of compounds on human IL-17A
# key: entry, value: IC50

Solved cases below.
Using the record for Cc1[nH]nc2c1-c1cc(F)c(NC(=O)[C@@H](NC(=O)/C(F)=C\C3CC3)C(C3CC3)C3CC3)cc1COCC2 , report its IC50.
≤ 50 nM

Using the record for C=C(F)C(=O)N[C@H](C(=O)Nc1cc2c(cc1F)-c1c(n[nH]c1C)CCOC2)C(C1CC1)C1CC1 , report its IC50.
≤ 50 nM

Using the record for Cc1[nH]nc2c1-c1ccc(NC(=O)[C@@H](NC(=O)c3ccnn3C)C(C3CC3)C3CC3)cc1CN(C)CC2 , report its IC50.
50 to 150 nM

Using the record for Cc1[nH]nc2c1-c1cc(F)c(NC(=O)[C@@H](NC(=O)c3ccnn3C(C)C)C(C3CC3)C3CC3)cc1CN(C(C)(C)C(F)(F)F)C(=O)C2 , report its IC50.
≤ 50 nM

Using the record for Cc1[nH]nc2c1-c1cnc(NC(=O)[C@@H](NC(=O)c3ccnn3C[C@@H]3C[C@H]3F)C(C3CC3)C3CC3)cc1COCC2 , report its IC50.
≤ 50 nM

Continuing:
Using the record for Cc1[nH]nc2c1-c1cc(F)c(NC(=O)[C@@H](NC(=O)c3ccnc(CC(F)(F)F)c3)C(C3CC3)C3CC3)cc1COCC2 , report its IC50.
50 to 150 nM

* * *

- system-under-test: Human IL-17A (Homo sapiens, UniProt Q16552)
- protocol-notes: IL-17A enzyme-linked immunosorbent assay (competitive ELISA, IL-17A/IL-17Ra receptor-ligand binding)
- Design: purchased Sino Biological Inc. 12047-H07B
- reported-conditions: human IL-17A coated plate, human IL-17Ra, read-out: IC50, inhibitory activity of compounds on human IL-17A
reported-endpoint: IC50

Solved cases below.
Give recorded IC50 with Human IL-17A (Homo sapiens, UniProt Q16552) for the following compound: [2H]C([2H])([2H])n1nccc1C(=O)N[C@H](C(=O)Nc1cc2c(cc1F)-c1c(n[nH]c1C)CCOC2)C(C1CC1)C1CC1
50 to 150 nM

Give recorded IC50 with Human IL-17A (Homo sapiens, UniProt Q16552) for the following compound: CCn1nccc1C(=O)N[C@H](C(=O)Nc1ccc2c(c1)COCCc1n[nH]c(C)c1-2)C1c2ccc(F)cc2OCC12CC2 (stereo partly drawn)
≤ 50 nM

Continuing:
Give recorded IC50 with Human IL-17A (Homo sapiens, UniProt Q16552) for the following compound: CCn1nccc1C(=O)N[C@H](C(=O)Nc1cc2c(cc1F)-c1c(n[nH]c1C)CC(=O)N(CC(C)(F)F)C2)C(C1CC1)C1CC1
≤ 50 nM

Give recorded IC50 with Human IL-17A (Homo sapiens, UniProt Q16552) for the following compound: Cc1[nH]nc2c1-c1cc(F)c(NC(=O)[C@@H](NC(=O)c3ccnn3C(C)C)C(C3CC3)C3CC3)cc1CN(CC(F)(F)F)C(=O)C2
≤ 50 nM

Give recorded IC50 with Human IL-17A (Homo sapiens, UniProt Q16552) for the following compound: Cc1[nH]nc2c1-c1cc(F)c(NC(=O)[C@@H](NC(=O)/C(F)=C\C(C)C)C(C3CC3)C3CC3)cc1COCC2
≤ 50 nM

Give recorded IC50 with Human IL-17A (Homo sapiens, UniProt Q16552) for the following compound: [2H]C([2H])(C1CC1)n1nccc1C(=O)N[C@H](C(=O)Nc1cc2c(cc1F)-c1c(n[nH]c1C)CCOC2)C(C1CC1)C1CC1
≤ 50 nM

* * *

# key: entry, value: pIC50
- system-under-test: UniProt Q16552
- protocol-notes: Inhibition of human IL-17A protein-induced GROα/CXCL1 production in HT-29 cells
- Type: cell-based
- Set-up: purchased R&D 317-ILB; host or cells: added exogenously to HT-29 cells
- reported-conditions: 30 ng/mL human IL-17A protein, 48 h, GROα in supernatant by ELISA kit, read-out: Inhibitory IC50 of compounds on HT-29 cell GROα/CXCL1
pIC50: −log10 of the molar value.

Solved cases below.
Using the record for Cc1[nH]nc2c1-c1cc(F)c(NC(=O)[C@@H](NC(=O)c3ccnn3C(C)C)C(C3CC3)C3CC3)cc1CN(CC1CC1)CC2 , report its pIC50.
6.30 to 7.00

Using the record for Cc1[nH]nc2c1-c1cc(F)c(NC(=O)[C@@H](NC(=O)c3conc3C(C)C)C(C3CC3)C3CC3)cc1CN(CC(F)F)C(=O)C2 , report its pIC50.
≥ 7.00

Using the record for CCN1Cc2cc(NC(=O)[C@@H](NC(=O)c3ccnn3C(C)C)C(C3CC3)C3CC3)c(F)cc2-c2c(n[nH]c2C)CC1=O , report its pIC50.
≥ 7.00

Using the record for Cc1[nH]nc2c1-c1cc(F)c(NC(=O)[C@@H](NC(=O)c3ccnn3CC3CCC3)C(C3CC3)C3CC3)cc1COCC2 , report its pIC50.
6.30 to 7.00

Using the record for Cc1[nH]nc2c1-c1cc(F)c(NC(=O)[C@@H](NC(=O)c3ccnn3CCC(F)F)C(C3CC3)C3CC3)cc1COCC2 , report its pIC50.
6.30 to 7.00

Field: next compound
Using the record for CSCCn1nccc1C(=O)N[C@H](C(=O)Nc1cc2c(cc1F)-c1c(n[nH]c1C)CCOC2)C(C1CC1)C1CC1 , report its pIC50.
6.30 to 7.00

* * *

# key: entry, value: pIC50
- system-under-test: Human IL-17A (Homo sapiens)
- protocol-notes: Inhibition of human IL-17A protein-induced GROα/CXCL1 production in HT-29 cells
- Format: cell-based
- Set-up: purchased R&D 317-ILB; host or cells: added exogenously to HT-29 cells
- reported-conditions: 30 ng/mL human IL-17A protein, 48 h, GROα in supernatant by ELISA kit, read-out: Inhibitory IC50 of compounds on HT-29 cell GROα/CXCL1
- Procedure: Experiment Example 3 Inhibition of Human IL-17A Protein-Induced GROα/CXCL1 Production in HT-29 Cells by Compounds […] 30 ng/mL of human IL-17A protein (R&D, #317-ILB) was mixed with gradient concentrations of the IL-17A small-molecule inhibitor, or with […] of a positive control IL-17A antibody (R&D, #AF-317-NA). […] Thereafter, the level of GROα in the cell culture supernatant was determined using a GROα ELISA kit (Cisbio, #62HCXC1PEG). […]
pIC50: −log10 of the molar value.

Solved cases below.
Using the record for Cc1[nH]nc2c1-c1cc(F)c(NC(=O)[C@@H](NC(=O)c3ccnn3C(C)C)C(C3CC3)C3CC3)cc1CCCC2 [compound 130] , report its pIC50.
6.30 to 7.00

Using the record for CCc1nocc1C(=O)N[C@H](C(=O)Nc1cc2c(cn1)-c1c(n[nH]c1C)CCN(C1CC1)C2)C(C1CC1)C1CC1 [compound 216] , report its pIC50.
≥ 7.00

Using the record for Cc1[nH]nc2c1-c1cc(F)c(NC(=O)[C@@H](NC(=O)c3ccnn3C(C)C)C(C3CC3)C3CC3)cc1CN(C)C(=O)C2 [compound 132] , report its pIC50.
≥ 7.00

Using the record for CCc1nocc1C(=O)N[C@H](C(=O)Nc1cc2c(cn1)-c1c(n[nH]c1C)CCOC2)C(C1CC1)C1CC1 [compound 240] , report its pIC50.
6.30 to 7.00

Using the record for Cc1[nH]nc2c1-c1cnc(NC(=O)[C@@H](NC(=O)c3ccnn3C[C@@H]3C[C@H]3F)C(C3CC3)C3CC3)cc1COCC2 [compound 125] , report its pIC50.
≥ 7.00

Continuing:
Using the record for [2H]C([2H])(C1CC1)n1nccc1C(=O)N[C@H](C(=O)Nc1cc2c(cc1F)-c1c(n[nH]c1C)CCOC2)C(C1CC1)C1CC1 [compound 76] , report its pIC50.
6.30 to 7.00

Using the record for Cc1[nH]nc2c1-c1cc(F)c(NC(=O)[C@@H](NC(=O)c3ccnn3C(C)C)C(C3CC3)C3CC3)cc1C(=O)NC(C)C2 (single isomer, unassigned) [compound 187a] , report its pIC50.
≥ 7.00

Using the record for CCCn1nccc1C(=O)N[C@H](C(=O)Nc1cc2c(cc1F)-c1c(n[nH]c1C)CCOC2)C(C1CC1)C1CC1 [compound 62] , report its pIC50.
6.30 to 7.00

Using the record for CCn1nccc1C(=O)N[C@H](C(=O)Nc1cc2c(cc1F)-c1c(n[nH]c1C)CCOC2)[C@H]1CC[C@H](C)CC1 [compound 46] , report its pIC50.
6.30 to 7.00

Using the record for CCN1Cc2cc(NC(=O)[C@@H](NC(=O)c3ccnn3CC)C(C3CC3)C3CC3)c(F)cc2-c2c(n[nH]c2C)CC1=O [compound 143] , report its pIC50.
≥ 7.00

Using the record for Cc1[nH]nc2c1-c1cc(F)c(NC(=O)[C@@H](NC(=O)c3ccnn3CC3CC3)C(C3CC3)C3CC3)cc1COCC2 [compound 59] , report its pIC50.
6.30 to 7.00

Using the record for CCC(C)n1nccc1C(=O)N[C@H](C(=O)Nc1cc2c(cc1F)-c1c(n[nH]c1C)CCOC2)C(C1CC1)C1CC1 (single isomer, unassigned) [compound 123a] , report its pIC50.
6.30 to 7.00

Using the record for Cc1[nH]nc2c1-c1cnc(NC(=O)[C@@H](NC(=O)c3ccnn3C(C)CF)C(C3CC3)C3CC3)cc1COCC2 (single isomer, unassigned) [compound 189b] , report its pIC50.
6.30 to 7.00

Using the record for Cc1[nH]nc2c1-c1cc(F)c(NC(=O)[C@@H](NC(=O)c3ccnn3C)C(C3CC3)C3CC3)cc1COCC2 [compound 17] , report its pIC50.
6.30 to 7.00
